molecular target: long form of human GPR120 (Homo sapiens); experiment: Human GPR120 DiscoveRx PathHunter β-Arrestin assay, Procedure β-arrestin A; details: PathHunter CHO-K1 GPR120 β-Arrestin cell line, 3000 cells per well
recorded endpoint: EC50 (nM)
Quick note: give the figure in nM, leave out the unit.

Consider the reported EC50 for these molecules:
{"structure smiles string": "Cc1ccc(-n2ccc(C(F)(F)F)c2COc2c(F)cc(CCC(=O)O)cc2F)cn1", "system": "long form of human GPR120 (Homo sapiens)", "EC50, nM": 1240}
{"structure smiles string": "Cc1c(CCC(=O)O)ccc(OCc2cccn2-c2ccc(Br)cc2)c1C", "system": "long form of human GPR120 (Homo sapiens)", "EC50, nM": 592}
{"structure smiles string": "COc1ccc(-n2ccc(C(F)(F)F)c2COc2c(F)cc(CCC(=O)O)cc2F)cc1", "system": "long form of human GPR120 (Homo sapiens)", "EC50, nM": 221}

Let me know recorded EC50 for `OCCCc1ccc(OCc2c(C(F)(F)F)ccn2-c2ccc(Br)cc2)c(F)c1F` , thanks. 87

====

Measured EC50 by item
molecular target: long form of human GPR120 (Homo sapiens, UniProt Q5NUL3); assay: Human GPR120 DiscoveRx PathHunter β-Arrestin assay, Procedure β-arrestin A; details: PathHunter CHO-K1 GPR120 β-Arrestin cell line, 3000 cells per well
Sequence (Q5NUL3 1-377 isoform Q5NUL3-1): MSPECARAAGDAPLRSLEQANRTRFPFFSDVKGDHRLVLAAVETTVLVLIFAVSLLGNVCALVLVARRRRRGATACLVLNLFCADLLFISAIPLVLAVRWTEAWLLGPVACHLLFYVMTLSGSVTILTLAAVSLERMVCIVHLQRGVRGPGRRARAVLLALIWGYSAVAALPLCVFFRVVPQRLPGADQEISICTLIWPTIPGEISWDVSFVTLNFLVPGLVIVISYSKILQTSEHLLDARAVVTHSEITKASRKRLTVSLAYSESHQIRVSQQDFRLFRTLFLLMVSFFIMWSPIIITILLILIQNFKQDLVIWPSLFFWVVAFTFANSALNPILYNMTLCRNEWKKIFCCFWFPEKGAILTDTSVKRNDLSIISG
Sequence (P32121 whole entry partner): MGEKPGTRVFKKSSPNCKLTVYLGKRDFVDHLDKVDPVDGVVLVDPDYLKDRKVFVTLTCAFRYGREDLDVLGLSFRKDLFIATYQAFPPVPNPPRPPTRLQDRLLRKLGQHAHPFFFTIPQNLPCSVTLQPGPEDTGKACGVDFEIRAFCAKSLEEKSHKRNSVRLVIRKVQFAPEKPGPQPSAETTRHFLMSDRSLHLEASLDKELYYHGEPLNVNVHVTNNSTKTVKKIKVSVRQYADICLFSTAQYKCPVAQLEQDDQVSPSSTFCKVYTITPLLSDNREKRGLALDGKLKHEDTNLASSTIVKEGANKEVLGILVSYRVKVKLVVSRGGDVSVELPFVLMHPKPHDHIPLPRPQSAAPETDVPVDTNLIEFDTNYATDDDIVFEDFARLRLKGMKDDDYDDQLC
Please give the number followed by its unit.

Could you please provide reported EC50 for `COc1ccc(-n2ccc(C(F)(F)F)c2COc2ccc(CCCO)c(F)c2F)cc1` ? Thanks! 46 nM

Tell me EC50 reported for `O=C(O)CCc1ccc(OCc2c(Br)ccn2-c2ccc(Cl)cc2)c(F)c1F` 730 nM

Output EC50 of `Cc1c(CCC(=O)O)ccc(OCc2cccn2-c2ccc(Cl)cc2)c1C` 1040 nM

====

target: Human GPR120 short form (Homo sapiens); construct: expressed in transfected cells; assay: Human GPR120 calcium flux assay, Procedure Calcium A; assay type: cell-based; details: HEK-293 cells expressing human GPR120 short form, 2500 cells/well, FLIPR
Sequence (Q5NUL3 whole entry): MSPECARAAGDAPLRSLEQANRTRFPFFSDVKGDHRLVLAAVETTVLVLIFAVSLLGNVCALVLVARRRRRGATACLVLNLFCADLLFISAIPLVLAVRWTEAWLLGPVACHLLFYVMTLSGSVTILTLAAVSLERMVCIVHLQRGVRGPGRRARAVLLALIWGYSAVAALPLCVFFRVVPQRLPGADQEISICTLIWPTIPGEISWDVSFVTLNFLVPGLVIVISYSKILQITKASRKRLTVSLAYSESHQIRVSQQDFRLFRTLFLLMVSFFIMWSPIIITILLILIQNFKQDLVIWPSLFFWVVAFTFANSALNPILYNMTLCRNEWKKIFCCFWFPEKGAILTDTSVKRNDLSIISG
recorded endpoint: pEC50
Just the number, please; pEC50 means minus log10 of the concentration in mol/L.

{"compound": "OCCCc1cc(F)c(OCc2c(C(F)(F)F)ccn2-c2ccc(Br)cc2)c(F)c1 [Compound 30]", "system": "Human GPR120 short form (Homo sapiens)", "reported result": 6.37}
{"compound": "Cc1c(CCCO)ccc(OCc2c(C(F)(F)F)ccn2-c2ccccc2)c1C [Compound 19]", "system": "Human GPR120 short form (Homo sapiens)", "reported result": 6.07}
{"compound": "Cc1ccc(-n2ccc(C(F)(F)F)c2COc2ccc(CCCO)c(F)c2F)cn1 [Compound 47, trifluoroacetic acid]", "system": "Human GPR120 short form (Homo sapiens)", "reported result": 6.43}

Determine from records and report pEC50 for CCc1ccc(-n2ccc(C(F)(F)F)c2COc2ccc(CCC(=O)O)c(F)c2F)cc1 [Compound 34] 6.29

Identify pEC50 associated with the compound OCCCc1cc(F)c(OCc2c(C(F)(F)F)ccn2-c2ccccc2)c(F)c1 [Compound 35] 6.29

Identify measured pEC50 associated with Cc1ccc(-n2ccc(C(F)(F)F)c2COc2c(F)cc(CCCO)cc2F)cn1 [Compound 48, trifluoroacetic acid] 7.01

Give reported pEC50 value for COc1ccc(-n2ccc(C(F)(F)F)c2COc2ccc(CCCO)c(F)c2F)cc1 [Compound 27] 6.66

For the compound O=C(O)CCc1ccc(OCc2c(C(F)(F)F)ccn2-c2ccc(Br)cc2)c(F)c1F [Compound 20] , give its reported pEC50. 5.90

Look up and report measured pEC50 for this entry: COc1ccc(-n2ccc(C(F)(F)F)c2COc2ccc(CCC(=O)O)c(F)c2F)cc1 [Compound 26] 6.04

Consider the compound CCc1ccc(-n2ccc(C(F)(F)F)c2COc2c(F)cc(CCCO)cc2F)cn1 [Compound 55] and give its recorded pEC50. 6.67

For Cc1c(CCC(=O)O)ccc(OCc2c(Cl)ccn2-c2ccc(Cl)cc2)c1C [Compound 8] , write its pEC50. 6.28

Give the reported pEC50 for this compound. O=C(O)CCc1cc(F)c(OCc2c(C(F)(F)F)ccn2-c2ccccc2)c(F)c1 [Compound 38] 6.35

Give pEC50 for OCCCc1ccc(OCc2c(Cl)ccn2-c2ccc(Cl)cc2)c(F)c1F [Compound 10] 5.96

Recall and state the measured pEC50 for O=C(O)CCc1ccc(OCc2c(Br)ccn2-c2ccc(Cl)cc2)c(F)c1F [Compound 6] . 6.09

In one line, give reported pEC50 of the entry Cc1c(CCC(=O)O)ccc(OCc2c(C#N)ccn2-c2ccc(Cl)cc2)c1C [Compound 12] . 5.37
